Recorded CC2 (cytotoxic concentration) by entry
system: human neuroblastoma MC-65 cells; experiment: cells; conditions: MC-65, cultured without tetracycline, viability below 80%
propertyMeasured: CC2 (cytotoxic concentration) (µM)

INSERT INTO results (compound, result) VALUES
  ('Cc1cc(=O)c(O)c(C(N2CCOCC2)C(F)(F)F)n1C (stereo not shown) [Apo7333]', 40),
  ('Cc1c(O)c(=O)c(C(N2CCCCC2)C(F)(F)F)cn1C (stereo not shown) [Apo7054]', 20),
  ('Cn1cc(Cl)c(=O)c(O)c1CC(F)(F)F [Apo7066]', 80),
  ('Cc1cc(=O)c(O)c(C(N2CCN(Cc3ccccc3)CC2)C(F)(F)F)n1C (stereo not shown) [Apo7334]', 20),
  ('Cc1c(Cl)c(=O)c(O)c(CC(F)(F)F)n1C [Apo7040]', 80),
  ('Cc1c(O)c(=O)ccn1CC(F)(F)F [Apo6995]', 80),
  ('Cn1ccc(=O)c(O)c1C(NC1CC1)C(F)(F)F (stereo not shown) [Apo7074]', 20);
